Item-by-item account of thermal shift delta Tm
# Tested on: LOC_OS03G04050-cb001
# measurement-protocol: thermal shift delta Tm vs DMSO control; higher = stronger stabilization (binding);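 note: purified Escherichia coli-expressed rice kinase domain construct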
# condition-info: 12.5 µM; protein concentration 2 µM
Reply numerically in °C, unit not repeated.

• C=CC(=O)Nc1cccc(Oc2nc(Nc3ccc(N4CCN(C)CC4)cc3OC)ncc2Cl)c1 = 0.85
• Cc1cc(Nc2cc(CN3CCOCC3)c3nc(C)c(Cc4ccc(Cl)cc4F)n3n2)n[nH]1 = -0.22
• Cc1cc2c(F)c(Oc3ncnn4cc(OC[C@@H](C)OC(=O)[C@H](C)N)c(C)c34)ccc2[nH]1 = 0.25

Lookup: Which value of thermal shift delta Tm has been reported for `CC(C)c1ccc2oc3nc(N)c(C(=O)O)cc3c(=O)c2c1` in the records?
Found: 0.67

Lookup: Which value of thermal shift delta Tm has been reported for `Cc1[nH]nc2ccc(-c3cncc(OC[C@@H](N)Cc4ccccc4)c3)cc12` in the records?
Found: 0.35

Lookup: Which value of thermal shift delta Tm has been reported for `O=C(/C=C/c1ccc2ccccc2n1)c1ccncc1` in the records?
Found: 0.27

Lookup: Which value of thermal shift delta Tm has been reported for `C[C@H]1CNC(=O)c2cnn3ccc(nc23)N[C@H](C)c2cc(F)ccc2O1` in the records?
Found: 0.53

---

# System: LOC_OS03G50810-cb003
# measurement-protocol: thermal shift delta Tm vs DMSO control; higher = stronger stabilization (binding)
# condition-info: 12.5 µM; protein concentration 2 µM
Please note: 1 applies when thermal shift delta Tm is 0.5 °C or greater, and -1 applies otherwise.

Lookup: Hello, I need to know if `CN(C)C/C=C/C(=O)Nc1ccc(C(=O)Nc2cccc(Nc3ncc(Cl)c(-c4c[nH]c5ccccc45)n3)c2)cc1` has measured thermal shift delta Tm not below 0.5 °C. Thanks!
Found: 1

---

# Test system: LOC_OS01G57100-cb003
# measurement-protocol: thermal shift delta Tm vs DMSO control; higher = stronger stabilization (binding)
# condition-info: 12.5 µM; protein concentration 2 µM
Please note: condition met applies when thermal shift delta Tm is 0.6 °C or greater, and condition not met applies otherwise.

• O=C(Nc1ccc(OC(F)(F)F)cc1)c1sccc1NCc1ccnc2ccccc12 = condition met
• CCCCNc1ncc(-c2ccc(CN3CCOCC3)cn2)c(NC2CCC(O)CC2)n1 (configuration not stated) = condition not met
• CN1CCC(CNc2ccc3ncc(-c4cccc(OC(F)(F)F)c4)n3n2)CC1 [SGI-1776 free base] = condition met

Now turn to the next compound.
Lookup: Hello, I need to know if CC(C)NC(=O)C1CCC(n2c(NC(=O)c3ccc(F)cc3)nc3ccc(CN4CCC(C(C)(C)O)CC4)cc32)CC1 (configuration not stated) has measured thermal shift delta Tm not below 0.6 °C. Thanks!
Found: condition met

---

# System: LOC_OS01G60330-cb001
# measurement-protocol: thermal shift delta Tm vs DMSO control; higher = stronger stabilization (binding)
# condition-info: 12.5 µM; protein concentration 2 µM
Structures can show the parent of a compound that is named as a salt.
Please note: Criterion met applies when thermal shift delta Tm is 1 °C or greater, and Criterion not met applies otherwise.

* NC(=O)c1ncn([C@@H]2O[C@H](CO)[C@@H](O)[C@H]2O)c1N | Criterion not met
* Cn1ncc(Cl)c1-c1cc(C(=O)N[C@H](CN)Cc2cccc(F)c2)sc1Cl | Criterion not met
* N#Cc1c(O)c2c(-c3ccc(-c4ccccc4O)cc3)csc2[nH]c1=O | Criterion met
* Cc1cc(NC(=O)c2cccc(NC(=O)/C=C/CN(C)C)c2)ccc1Nc1nccc(-c2cccnc2)n1 | Criterion not met
* N=C(N)NC(=N)NCCc1ccccc1 [Phenformin HCl] | Criterion not met
* CN1CCN(Cc2ccc(-c3cnc4[nH]cc(-c5ccc6[nH]ccc6c5)c4c3)cc2)CC1 | Criterion met
* CCn1c2ccccc2c2cc(Nc3ccnc(NCCCN4CCOCC4)n3)ccc21 | Criterion met
* Nc1cccc(S(=O)(=O)N2CCCN(S(=O)(=O)c3ccc4c(c3)OCCO4)CC2)c1 | Criterion not met
* CN1CCC(COc2cnc(-c3cccc(Cn4nc(-c5cccc(C#N)c5)ccc4=O)c3)nc2)CC1 | Criterion not met
* CCc1cccc(CC)c1NC(=O)N1Cc2[nH]nc(NC(=O)c3ccc(N4CCN(C)CC4)cc3)c2C1 | Criterion not met

Now turn to the next molecule.
Lookup: Hello, I need to know if `Cc1cc(Nc2cc(CN3CCOCC3)c3nc(C)c(Cc4ccc(Cl)cc4F)n3n2)n[nH]1` has measured thermal shift delta Tm not below 1 °C. Thanks!
Found: Criterion met

---

# Tested on: LOC_OS01G10900-cb004
# measurement-protocol: thermal shift delta Tm vs DMSO control; higher = stronger stabilization (binding)
# condition-info: 12.5 µM; protein concentration 2 µM
measured-metric: thermal shift delta Tm (°C)
Reply numerically in °C, unit not repeated.

• Cc1ccc([N+](=O)[O-])cc1S(=O)(=O)N(C)/N=C/c1cnc2ccc(Br)cn12 = 7.32
• COc1ccc(COc2cc3oc(=O)c4cc(C(C)O)ccc4c3cc2OC)cc1 (centres undefined) = 1.07
• N#CC(=C(/N)Sc1ccccc1N)/C(C#N)=C(\N)Sc1ccccc1N = -0.2
• C=CC(=O)Nc1cccc(Oc2nc(Nc3ccc(N4CCN(C)CC4)cc3)nc3ccsc23)c1 = 2.04
• O=c1ccc2ccc(O)c(O)c2o1 = 0.22

Lookup: Which value of thermal shift delta Tm has been reported for `CN(C)C[C@@H]1CCn2cc(c3ccccc32)C2=C(C(=O)NC2=O)c2cn(c3ccccc23)CCO1` in the records?
Found: 0.95

Lookup: Which value of thermal shift delta Tm has been reported for `CC[C@@](C)(Nc1ccnc(-c2c[nH]c3ncccc23)n1)C(=O)NCC(F)(F)F` in the records?
Found: -0.38

Lookup: Which value of thermal shift delta Tm has been reported for `N#Cc1ccc2[nH]c(O)c(-c3ccc(CN4CCOCC4)cn3)c2c1` in the records?
Found: 0.41

Lookup: Which value of thermal shift delta Tm has been reported for `O=C(O)c1ccc(Nc2ncc3c(n2)-c2ccc(Cl)cc2C(c2c(F)cccc2F)=NC3)cc1` in the records?
Found: -0.28

Lookup: Which value of thermal shift delta Tm has been reported for `COc1cc(-c2cc(-c3ccc(N4CCNCC4)cc3)cnc2C)cc(OC)c1OC` in the records?
Found: 1.13

---

Item-by-item account of thermal shift delta Tm
# Tested on: LOC_OS01G13800-cb001
# measurement-protocol: thermal shift delta Tm vs DMSO control; higher = stronger stabilization (binding)
# condition-info: 12.5 µM; protein concentration 2 µM

Field: example entries. Status: answers known.
• Oc1cc(CNC(=S)/C=C/c2cc(O)c(O)c(Br)c2)cc(O)c1O = 4.09 °C
• CN1CCN(c2ccc(-c3ccncc3-c3cc(F)c(O)c(F)c3)cc2)CC1 = 0.02 °C
• CNC(=O)c1cc(Oc2ccc(NC(=O)Nc3ccc(Cl)c(C(F)(F)F)c3)c(F)c2)ccn1 = 0.79 °C

Lookup: Which value of thermal shift delta Tm has been reported for `O=S(=O)(c1cccc2c(I)cccc12)N1CCCNCC1` in the records?
Found: 0.43 °C

Lookup: Which value of thermal shift delta Tm has been reported for `O=C(NOC[C@H](O)CO)c1ccc(F)c(F)c1Nc1ccc(I)cc1F` in the records?
Found: 0.45 °C

Lookup: Which value of thermal shift delta Tm has been reported for `Cc1cc(Nc2nc(N[C@@H](C)c3ccc(F)cc3)c(C#N)cc2F)n[nH]1` in the records?
Found: -0.07 °C

Lookup: Which value of thermal shift delta Tm has been reported for `C=CC(=O)Nc1cccc(Sc2nc(Nc3ccc(N4CCN(C)CC4)cc3)ncc2Cl)c1` in the records?
Found: -0.1 °C

Lookup: Which value of thermal shift delta Tm has been reported for `O=C1Nc2ccc(I)cc2/C1=C/c1cc(Br)c(O)c(Br)c1` in the records?
Found: 2.56 °C

Lookup: Which value of thermal shift delta Tm has been reported for `CN1CCC(Nc2nc(Nc3ccc(Oc4ccccc4)cc3)c3c(=O)[nH]cc(Br)c3n2)CC1` in the records?
Found: 0.59 °C

---

# System: LOC_OS05G07850-cb002
# measurement-protocol: thermal shift delta Tm vs DMSO control; higher = stronger stabilization (binding)
# condition-info: 12.5 µM; protein concentration 2 µM
measured-metric: thermal shift delta Tm (°C)
Reply numerically in °C, unit not repeated.

* Cc1nc2ccc(-n3ncc(C(=O)c4cc5ccccc5[nH]4)c3N)cc2[nH]1 | 2.01
* CNC(=O)c1cc(COc2nnc(Nc3ccc(Cl)cc3)c3ccoc23)ccn1 | 0.35
* CNCc1ccc(-c2cc(-c3nc(-c4ccc(S(=O)(=O)C(C)C)cc4)cnc3N)on2)cc1 | 6.99
* Cc1ccc2nc(NCCN)c3ncc(C)n3c2c1 | 0.79
* Cn1c(=O)c(Oc2ccc(F)cc2F)cc2cnc(NC(CCO)CCO)nc21 | 0.33

Consider the record given below.
Lookup: Requested read-out thermal shift delta Tm, target or system LOC_OS05G07850-cb002, entry `N#Cc1ccc(-c2c(-c3ncn[nH]3)sc(N3CCOCC3)c2C#N)c(F)c1`
Found: -0.29
